- TESTED_SYSTEM: T1, recombinant C-terminally truncated RSV (A2 strain) F protein (RSV (A2 strain), UniProt P03420 26-524)
- T1 construct: extracellular domain; also called truncated F protein; extracellular domain of the F protein from RSV A2
- T1 sequence (P03420 26-109, chain 1 of 2): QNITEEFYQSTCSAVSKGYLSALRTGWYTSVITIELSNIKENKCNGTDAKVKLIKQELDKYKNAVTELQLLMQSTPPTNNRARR
- T1 sequence (P03420 137-524, chain 2 of 2): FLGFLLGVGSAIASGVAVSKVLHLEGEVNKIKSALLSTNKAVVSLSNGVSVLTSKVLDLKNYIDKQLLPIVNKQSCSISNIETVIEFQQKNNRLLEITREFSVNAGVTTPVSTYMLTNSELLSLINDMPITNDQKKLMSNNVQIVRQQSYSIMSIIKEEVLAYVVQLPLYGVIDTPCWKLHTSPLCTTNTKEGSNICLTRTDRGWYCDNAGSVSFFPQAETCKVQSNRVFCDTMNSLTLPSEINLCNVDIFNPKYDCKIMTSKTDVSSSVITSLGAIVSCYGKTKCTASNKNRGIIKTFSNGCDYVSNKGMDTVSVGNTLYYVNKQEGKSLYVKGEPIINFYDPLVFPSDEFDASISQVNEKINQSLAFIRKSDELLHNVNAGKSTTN
- ASSAY_DETAILS: SPR (BIAcore), Fab over immobilised F
ENDPOINT_NAME: kon (M⁻¹ s⁻¹)
Kindly provide the numeric value in M⁻¹ s⁻¹ only, without the unit symbol.

Here is how some binders turned out for kon.
A8c7 Fab (Fab, V domains shown) VH: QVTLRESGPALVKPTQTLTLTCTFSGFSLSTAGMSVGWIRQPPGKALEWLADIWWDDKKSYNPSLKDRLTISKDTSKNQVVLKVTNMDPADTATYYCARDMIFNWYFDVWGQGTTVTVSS VL: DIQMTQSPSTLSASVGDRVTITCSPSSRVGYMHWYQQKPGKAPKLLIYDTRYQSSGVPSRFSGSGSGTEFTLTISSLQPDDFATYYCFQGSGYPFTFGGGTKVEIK : 647000
P11d4 Fab (Fab, V domains shown) VH: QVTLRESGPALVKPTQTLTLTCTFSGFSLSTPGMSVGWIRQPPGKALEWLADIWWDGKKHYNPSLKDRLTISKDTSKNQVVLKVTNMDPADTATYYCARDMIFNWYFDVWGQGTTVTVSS VL: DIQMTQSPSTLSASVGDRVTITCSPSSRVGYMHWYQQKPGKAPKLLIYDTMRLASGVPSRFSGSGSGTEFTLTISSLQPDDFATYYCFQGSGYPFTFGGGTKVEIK : 570000

Pending binder:
kon recorded for this binder, A17h4 Fab (Fab, V domains shown) VH: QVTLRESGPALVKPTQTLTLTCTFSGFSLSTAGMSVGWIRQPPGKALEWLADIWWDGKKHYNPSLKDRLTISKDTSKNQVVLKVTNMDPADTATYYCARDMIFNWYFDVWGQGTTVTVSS VL: DIQMTQSPSTLSASVGDRVTITCSPSSSVGYMHWYQQKPGKAPKLLIYDTYYLASGVPSRFSGSGSGTEFTLTISSLQPDDFATYYCFQGSGYPFTFGGGTKVEIK , is 519000
